# Study system: T1, purified human αvβ3 integrin protein (human, UniProt P06756 31-1048; P05106 27-788)
# T1 construct: Bought heterodimer; also called ABI; purified αvβ3 integrin
# T1 sequence (P06756 31-1048, form in doubt, chain 1 of 2): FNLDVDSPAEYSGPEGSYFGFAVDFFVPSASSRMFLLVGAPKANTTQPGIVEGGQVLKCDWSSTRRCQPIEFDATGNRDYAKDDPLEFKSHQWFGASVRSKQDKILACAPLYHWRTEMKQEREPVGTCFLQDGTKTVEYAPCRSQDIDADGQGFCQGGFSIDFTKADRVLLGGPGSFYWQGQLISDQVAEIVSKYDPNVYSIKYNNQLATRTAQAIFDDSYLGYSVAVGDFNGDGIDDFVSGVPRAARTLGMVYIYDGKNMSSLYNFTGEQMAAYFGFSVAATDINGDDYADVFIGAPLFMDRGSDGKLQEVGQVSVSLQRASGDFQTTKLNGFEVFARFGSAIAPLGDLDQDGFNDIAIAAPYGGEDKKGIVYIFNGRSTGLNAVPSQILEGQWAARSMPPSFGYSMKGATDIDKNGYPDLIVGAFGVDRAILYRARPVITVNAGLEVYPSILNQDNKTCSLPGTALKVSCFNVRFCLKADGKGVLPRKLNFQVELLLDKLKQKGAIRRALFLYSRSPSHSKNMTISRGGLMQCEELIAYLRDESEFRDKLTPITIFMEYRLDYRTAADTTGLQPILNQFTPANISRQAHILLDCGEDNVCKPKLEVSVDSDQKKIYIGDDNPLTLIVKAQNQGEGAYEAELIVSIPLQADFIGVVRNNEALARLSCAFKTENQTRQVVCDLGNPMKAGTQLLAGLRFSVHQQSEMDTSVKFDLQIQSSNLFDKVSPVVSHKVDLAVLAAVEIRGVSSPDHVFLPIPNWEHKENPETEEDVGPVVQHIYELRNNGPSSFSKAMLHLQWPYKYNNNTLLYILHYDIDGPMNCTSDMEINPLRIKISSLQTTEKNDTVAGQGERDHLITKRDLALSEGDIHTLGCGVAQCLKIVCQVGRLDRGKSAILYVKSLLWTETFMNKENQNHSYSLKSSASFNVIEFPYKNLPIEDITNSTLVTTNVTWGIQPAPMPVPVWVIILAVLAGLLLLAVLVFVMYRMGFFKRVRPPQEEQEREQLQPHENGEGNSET
# T1 sequence (P05106 27-788, form in doubt, chain 2 of 2): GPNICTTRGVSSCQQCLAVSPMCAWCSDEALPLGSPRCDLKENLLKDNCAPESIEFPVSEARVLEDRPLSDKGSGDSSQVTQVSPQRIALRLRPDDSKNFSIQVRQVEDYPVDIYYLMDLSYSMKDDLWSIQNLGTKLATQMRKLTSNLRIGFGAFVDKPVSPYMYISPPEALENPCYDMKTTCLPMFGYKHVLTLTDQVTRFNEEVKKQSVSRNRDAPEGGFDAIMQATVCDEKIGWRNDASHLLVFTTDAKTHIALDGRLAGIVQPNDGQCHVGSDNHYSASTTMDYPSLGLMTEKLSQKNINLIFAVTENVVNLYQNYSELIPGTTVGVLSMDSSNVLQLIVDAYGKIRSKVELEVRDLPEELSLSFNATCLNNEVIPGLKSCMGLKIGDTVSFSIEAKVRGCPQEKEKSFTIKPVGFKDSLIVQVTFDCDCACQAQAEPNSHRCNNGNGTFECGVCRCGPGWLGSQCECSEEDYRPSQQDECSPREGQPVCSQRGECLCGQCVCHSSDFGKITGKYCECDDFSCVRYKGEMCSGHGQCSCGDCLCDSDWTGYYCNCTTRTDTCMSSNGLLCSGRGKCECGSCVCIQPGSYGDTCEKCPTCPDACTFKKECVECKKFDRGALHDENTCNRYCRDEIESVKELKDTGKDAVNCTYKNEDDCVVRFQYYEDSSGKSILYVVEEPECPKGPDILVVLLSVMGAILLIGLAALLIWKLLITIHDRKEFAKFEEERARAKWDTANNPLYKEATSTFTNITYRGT
# Test protocol: competition with 125I-echistatin on purified human αvβ3 integrin, filter plate;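 further: test ligands incubated two hours at room temperature with the integrin, bound radioactivity retained on filters measured by gamma counting, IC50 obtained through nonlinear regression fitting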
Primed or numbered codes have the meaning given here. [ ]: non-standard residue; d: D form. The star is where a group is joined. Cypate = CC1(C)C(/C=C/C=C/C=C/C=C2/N(CCC(=O)*)c3ccc4ccccc4c3C2(C)C)=[N+](CCC(=O)O)c2ccc3ccccc3c21; DOTA = O=C(O)CN1CCN(CC(=O)O)CCN(CC(=O)*)CCN(CC(=O)O)CC1; Cypate′ = NIR carbocyanine dye; Ahx = NCCCCCC(=O)O; βAla = NCCC(=O)O
Endpoint: pIC50
On this scale, pIC50 is minus log10 of a concentration expressed in M (mol/L).

Field pIC50 (entry {Cypate(3)}-GRDSPK-OH [Cypate(3)-Gly-Arg-Asp-Ser-Pro-Lys-OH] ) reads 2.57

Form field pIC50, entry {DOTA}-RGDSPK(Cypate)-NH2 (SMILES CC1(C)C(/C=C/C=C/C=C/C=C2/N(CCC(=O)NCCCC[C@H](NC(=O)[C@@H]3CCCN3C(=O)[C@H](CO)NC(=O)[C@H](CC(=O)O)NC(=O)CNC(=O)[C@H](CCCNC(=N)N)NC(=O)CN3CCN(CC(=O)O)CCN(CC(=O)O)CCN(CC(=O)O)CC3)C(N)=O)c3ccc4ccccc4c3C2(C)C)=[N+](CCC(=O)O)c2ccc3ccccc3c21) [DOTA-Arg-Gly-Asp-Ser-Pro-Lys(Cypate)-NH2] : 6.14

Measured pIC50, GRGDSPK (HELM PEPTIDE1{[CC1(C)C(/C=C/C=C/C=C/C=C2/N(CCC(=O)[*:2])c3ccc4ccccc4c3C2(C)C)=[N+](CCC(=O)O)c2ccc3ccccc3c21].G.R.G.D.S.P.K}$$$$V2.0; SMILES CC1(C)C(/C=C/C=C/C=C/C=C2/N(CCC(=O)NCC(=O)N[C@@H](CCCNC(=N)N)C(=O)NCC(=O)N[C@@H](CC(=O)O)C(=O)N[C@@H](CO)C(=O)N3CCC[C@H]3C(=O)N[C@@H](CCCCN)C(=O)O)c3ccc4ccccc4c3C2(C)C)=[N+](CCC(=O)O)c2ccc3ccccc3c21, also called Cypate-GRGDSPK; Cypate-GRGDSPK-OH) [Cypate-Gly-Arg-Gly-Asp-Ser-Pro-Lys-OH] : 6.48

Documented pIC50 of {Cypate′}-[βAla]RGD[Ahx]RGD[Ahx]RGDSPK-OH [Cypate-BAla-Arg-Gly-Asp-EAhx-Arg-Gly-Asp-EAhx-Arg-Gly-Asp-Ser-Pro-Lys-OH] : 7.18
